Hello, the source for this data is patent US8921307B2, in case you need it.

- experimental_details: Surrogate Activity-Based Plasma Stability Assay
- Format: in vitro ADME
- test_conditions: rat, Surrogate activity-based Plasma stability t½
Where a SMILES comes first, the peptide text is derived from it. [ ]: non-standard residue; d: D form. pGlu = O=C1CC[C@@H](C(=O)O)N1; dNle = CCCC[C@@H](N)C(=O)O; Aib = CC(C)(N)C(=O)O
Readings of half-life for the listed molecules
Could you give me the number in h? Just the number is fine.

>  <molecule>
CCCC[C@H](NC(=O)[C@@H]1CCCN1C(=O)CNC(=O)[C@H](CCCCN)NC(=O)[C@H](Cc1c[nH]cn1)NC(=O)[C@@H](C)NC(=O)[C@H](CC(C)C)NC(=O)[C@H](CCCNC(=N)N)NC(=O)[C@@H]1CCCN1C(=O)[C@H](CCCNC(=N)N)NC(=O)[C@@H]1CCC(=O)N1)C(=O)N[C@H](C)C(=O)N[C@H](Cc1ccccc1)C(=O)O

>  <half-life [h]>
2.14

$$$$
>  <molecule>
CCCC[C@@H](NC(=O)[C@@H]1CCCN1C(=O)CNC(=O)[C@H](CCCCN)NC(=O)C(C)(C)NC(=O)[C@H](CO)NC(=O)[C@@H](CC(C)C)NC(=O)[C@H](CCCNC(=N)N)NC(=O)[C@@H]1CCCN1C(=O)[C@H](CCCNC(=N)N)NC(=O)[C@@H]1CCC(=O)N1)C(=O)N[C@H](C)C(=O)N[C@H](Cc1ccccc1)C(=O)O [Example 4, pE-R-P-R-(D-Leu)-S-Aib-K-G-P-nle-a-f-OH] ([pGlu]RPR[dL]S[Aib]KGP[dNle][dA][dF]-OH)

>  <half-life [h]>
12.2

$$$$

Field: next molecule
Q) Name the recorded half-life for "CCCC[C@@H](NC(=O)[C@@H]1CCCN1C(=O)CNC(=O)[C@H](CCCCN)NC(=O)[C@H](Cc1c[nH]cn1)NC(=O)[C@@H](CC)NC(=O)[C@H](CC(C)C)NC(=O)[C@H](CCCNC(=N)N)NC(=O)[C@@H]1CCCN1C(=O)[C@H](CCCNC(=N)N)NC(=O)[C@@H]1CCC(=O)N1)C(=O)N[C@H](C)C(=O)N[C@H](Cc1ccccc1)C(=O)O" .
A) 9.25

---

- experimental_details: Surrogate Activity-Based Plasma Stability Assay
- Type: in vitro ADME
- test_conditions: rat, Surrogate activity-based Plasma stability t½
Where a SMILES comes first, the peptide text is derived from it. [ ]: non-standard residue; d: D form. dTic = O=C(O)[C@H]1Cc2ccccc2CN1; Cha = N[C@@H](CC1CCCCC1)C(=O)O; pGlu = O=C1CC[C@@H](C(=O)O)N1; dNle = CCCC[C@@H](N)C(=O)O; dNva = CCC[C@@H](N)C(=O)O; Nle = CCCC[C@H](N)C(=O)O
readout_kind: half-life

Recorded half-life, per entry:
>  <compound>
CCC[C@@H](NC(=O)[C@@H]1CCCN1C(=O)CNC(=O)[C@H](CCCCN)NC(=O)[C@H](Cc1c[nH]cn1)NC(=O)[C@@H](C)NC(=O)[C@H](CC(C)C)NC(=O)[C@H](CCCNC(=N)N)NC(=O)[C@@H]1CCCN1C(=O)[C@H](CCCNC(=N)N)NC(=O)[C@@H]1CCC(=O)N1)C(=O)N[C@H](C)C(=O)N[C@H](Cc1ccccc1)C(=O)O [Example 53, pE-R-P-R-L-a-H-K-G-P-nva-a-f-OH] ([pGlu]RPRL[dA]HKGP[dNva][dA][dF]-OH)

>  <half-life>
> 16.7 h

$$$$
>  <compound>
CCCC[C@H](NC(=O)[C@@H]1CCCN1C(=O)CNC(=O)[C@H](CCCCN)NC(=O)[C@H](Cc1c[nH]cn1)NC(=O)[C@@H](C)NC(=O)[C@H](CC(C)C)NC(=O)[C@H](CCCNC(=N)N)NC(=O)[C@@H]1CCCN1C(=O)[C@H](CCCNC(=N)N)NC(=O)[C@@H]1CCC(=O)N1)C(=O)N1CCC[C@H]1C(=O)N[C@H](Cc1ccccc1)C(=O)O [Example 34, pE-R-P-R-L-a-H-K-G-P-Nle-P-f-OH] ([pGlu]RPRL[dA]HKGP[Nle]P[dF]-OH)

>  <half-life>
0.387 h

$$$$
>  <compound>
CCCC[C@@H](NC(=O)[C@@H]1CCCN1C(=O)CNC(=O)[C@H](CCCCN)NC(=O)[C@H](Cc1c[nH]cn1)NC(=O)[C@@H](C)NC(=O)[C@H](CC1CCCCC1)NC(=O)[C@H](CCCNC(=N)N)NC(=O)[C@@H]1CCCN1C(=O)[C@H](CCCNC(=N)N)NC(=O)[C@@H]1CCC(=O)N1)C(=O)N[C@H](C)C(=O)N[C@H](Cc1ccccc1)C(=O)O [Example 23, pE-R-P-R-Cha-a-H-K-G-P-nle-a-f-OH] ([pGlu]RPR[Cha][dA]HKGP[dNle][dA][dF]-OH)

>  <half-life>
2.08 h

$$$$

Q) # half-life lookup, item CCCC[C@@H](NC(=O)[C@@H]1CCCCN1C(=O)CNC(=O)[C@H](CCCCN)NC(=O)[C@H](Cc1c[nH]cn1)NC(=O)[C@@H](C)NC(=O)[C@H](CC(C)C)NC(=O)[C@H](CCCNC(=N)N)NC(=O)[C@@H]1CCCN1C(=O)[C@H](CCCNC(=N)N)NC(=O)[C@@H]1CCC(=O)N1)C(=O)N[C@H](C)C(=O)N[C@H](Cc1ccccc1)C(=O)O [Example 1, pE-R-P-R-L-a-H-K-G-Pip-nle-a-f-OH]
A) > 16.7 h

Q) Using the record for CCCC[C@@H](NC(=O)[C@@H]1CCCN1C(=O)CNC(=O)[C@H](CCCCN)NC(=O)[C@H](Cc1c[nH]cn1)NC(=O)[C@@H](C)NC(=O)[C@H](CC(C)C)NC(=O)[C@H](CCCNC(=N)N)NC(=O)[C@@H]1CCCN1C(=O)[C@H](CCCNC(=N)N)NC(=O)[C@@H]1CCC(=O)N1)C(=O)N[C@H](C)C(=O)N1Cc2ccccc2C[C@@H]1C(=O)O [Example 26, pE-R-P-R-L-a-H-K-G-P-nle-a-tic-OH] ([pGlu]RPRL[dA]HKGP[dNle][dA][dTic]-OH) , report its half-life.
A) 16.4 h
